# Target: kinase enzymes (Homo sapiens, UniProt P42336)
# Construct: purchased DiscoveRx Corporation, San Diego (contract service, KINOMEscan)
# Sequence (P42336 whole entry): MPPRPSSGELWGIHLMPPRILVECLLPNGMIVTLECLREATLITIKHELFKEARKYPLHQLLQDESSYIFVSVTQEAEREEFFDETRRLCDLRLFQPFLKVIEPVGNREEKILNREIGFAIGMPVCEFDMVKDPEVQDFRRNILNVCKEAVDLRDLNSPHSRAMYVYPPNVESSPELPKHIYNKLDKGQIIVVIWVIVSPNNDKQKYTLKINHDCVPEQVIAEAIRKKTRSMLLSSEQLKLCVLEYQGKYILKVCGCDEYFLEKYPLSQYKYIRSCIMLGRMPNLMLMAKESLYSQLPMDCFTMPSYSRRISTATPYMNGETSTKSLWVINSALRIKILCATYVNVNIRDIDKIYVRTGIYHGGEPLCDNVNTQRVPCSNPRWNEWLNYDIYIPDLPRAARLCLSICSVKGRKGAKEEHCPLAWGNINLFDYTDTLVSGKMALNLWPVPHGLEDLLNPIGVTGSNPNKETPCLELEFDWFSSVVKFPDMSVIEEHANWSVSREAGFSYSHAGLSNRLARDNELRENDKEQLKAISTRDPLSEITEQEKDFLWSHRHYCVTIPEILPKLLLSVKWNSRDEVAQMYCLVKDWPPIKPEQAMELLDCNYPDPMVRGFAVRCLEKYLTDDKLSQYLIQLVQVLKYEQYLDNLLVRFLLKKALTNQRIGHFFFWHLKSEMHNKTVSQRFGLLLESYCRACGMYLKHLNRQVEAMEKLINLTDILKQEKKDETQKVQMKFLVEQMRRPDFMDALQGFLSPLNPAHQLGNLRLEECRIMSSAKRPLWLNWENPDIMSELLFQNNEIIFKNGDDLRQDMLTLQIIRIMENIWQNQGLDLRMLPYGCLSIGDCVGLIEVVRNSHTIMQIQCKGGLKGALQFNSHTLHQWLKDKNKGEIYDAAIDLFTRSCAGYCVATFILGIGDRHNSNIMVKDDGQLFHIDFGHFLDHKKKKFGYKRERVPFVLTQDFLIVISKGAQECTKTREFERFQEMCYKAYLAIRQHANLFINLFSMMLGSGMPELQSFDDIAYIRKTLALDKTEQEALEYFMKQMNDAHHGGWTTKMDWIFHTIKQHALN
# Measurement notes: Enzyme binding assay (KINOMEscan, DiscoveRx), further kinases of Table A
# Experimental setup: PIK3Cα_h
# Experimental: Enzyme Binding Assays (KINOMEscan®) Kinase enzyme binding affinities of compounds disclosed herein were determined using the KINOMEscan technology performed by DiscoveRx Corporation, San Diego, Calif., USA (www.kinomescan.com).
pKd: −log10 of the molar value.
Parameter: pKd

Below, each entry is followed by its recorded pKd result.
Molecule	Target	pKd
CC(Oc1cccc(F)c1)c1cc(C(=O)O)cc2ncc(N3CCOCC3)nc12 (single isomer, unassigned) [Compound 257b]	kinase enzymes (Homo sapiens, UniProt P42336)	6.07
CNCCNC(=O)c1cc(C(C)Nc2cc(F)ccc2F)c2nc(N3CCOCC3)cnc2c1 (stereo not shown)	kinase enzymes (Homo sapiens, UniProt P42336)	6.08
CC(Oc1cccc(F)c1)c1cc(C(=O)NCCO)cc2ncc(N3CCOCC3)nc12 (single isomer, unassigned) [Compound 334a]	kinase enzymes (Homo sapiens, UniProt P42336)	5.27
CCN1CCN(C(=O)c2cc(C(C)Nc3cccc(F)c3)c3nc(N4CCOCC4)cnc3c2)CC1 (single isomer, unassigned)	kinase enzymes (Homo sapiens, UniProt P42336)	5.79
CC(Nc1ccc(F)c(F)c1)c1cc(C(=O)N2CCN3CCC[C@H]3C2)cc2ncc(N3CCOCC3)nc12 (single isomer, unassigned) [Compound 287a]	kinase enzymes (Homo sapiens, UniProt P42336)	5.76

I = CC(Nc1ccc(F)c(F)c1)c1cc(C(=O)NCCCO)cc2ncc(N3CCOCC3)nc12 (stereo not shown) [Compound 280]
II = COc1cc(F)cc(N2CCCC2c2cc(C(=O)N(C)C)cc3ncc(N4CCOCC4)nc23)c1 (stereo not shown)
[in] Identify the item whose pKd is the smaller number: I or II Refer to your chosen entry by its label in the reply.
[out] I

====

# Target: PI3Kβ (Homo sapiens, UniProt P42338)
# Construct: purchased DiscoveRx Corporation, San Diego (contract service, KINOMEscan)
# Sequence (P42338 whole entry): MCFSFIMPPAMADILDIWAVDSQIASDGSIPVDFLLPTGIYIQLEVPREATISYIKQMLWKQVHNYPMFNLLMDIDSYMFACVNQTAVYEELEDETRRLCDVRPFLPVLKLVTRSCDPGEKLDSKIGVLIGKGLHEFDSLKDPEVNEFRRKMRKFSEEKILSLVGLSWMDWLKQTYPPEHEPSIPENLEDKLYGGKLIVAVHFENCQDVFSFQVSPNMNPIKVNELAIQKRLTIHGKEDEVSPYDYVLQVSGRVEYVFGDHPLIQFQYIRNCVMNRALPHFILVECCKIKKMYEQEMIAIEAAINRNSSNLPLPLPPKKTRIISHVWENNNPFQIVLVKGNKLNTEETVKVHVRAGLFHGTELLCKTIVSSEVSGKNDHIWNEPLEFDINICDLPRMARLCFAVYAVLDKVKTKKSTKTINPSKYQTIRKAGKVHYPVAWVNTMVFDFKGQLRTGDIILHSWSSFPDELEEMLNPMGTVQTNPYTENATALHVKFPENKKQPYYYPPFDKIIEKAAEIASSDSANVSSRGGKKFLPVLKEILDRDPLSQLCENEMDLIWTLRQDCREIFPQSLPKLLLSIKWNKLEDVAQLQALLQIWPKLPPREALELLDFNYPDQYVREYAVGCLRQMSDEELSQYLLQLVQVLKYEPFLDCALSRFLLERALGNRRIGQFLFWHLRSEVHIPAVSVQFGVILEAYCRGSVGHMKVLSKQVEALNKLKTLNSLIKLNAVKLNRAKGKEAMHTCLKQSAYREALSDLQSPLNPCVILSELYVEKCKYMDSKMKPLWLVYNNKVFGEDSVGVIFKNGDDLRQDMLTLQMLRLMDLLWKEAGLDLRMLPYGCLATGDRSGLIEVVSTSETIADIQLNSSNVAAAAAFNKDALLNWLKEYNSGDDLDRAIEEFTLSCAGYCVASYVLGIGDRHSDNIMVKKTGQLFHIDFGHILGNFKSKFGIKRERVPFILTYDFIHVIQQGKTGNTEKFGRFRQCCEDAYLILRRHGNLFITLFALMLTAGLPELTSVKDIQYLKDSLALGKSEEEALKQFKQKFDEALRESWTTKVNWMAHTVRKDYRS
# Measurement notes: Enzyme binding assay (KINOMEscan, DiscoveRx)
# Experimental setup: PIK3Cβ_h, read-out: Kd PIK3Cβ_h
pKd: −log10 of the molar value.
Parameter: pKd

Compound	pKd
CC(C)N1CCCN(C(=O)c2cc(NCc3cc(F)cc(F)c3)c3nc(N4CCOCC4)cnc3c2)CC1 [Compound 360]	7.38

a = O=C(NCCO)c1cc(C2CCCN2c2cc(F)cc(F)c2)c2nc(N3CCOCC3)cnc2c1 (centres unmarked) [Compound 71]
b = Cc1ccc(F)cc1CNc1cc(C(=O)NCCO)cc2ncc(N3CCOCC3)nc12 [Compound 343]
[in] Could you check which of a and b has a smaller value for pKd? Label of pick, please.
[out] b

a = CC(Nc1cc(F)cc(F)c1)c1cc(C(=O)NC[C@H](C)O)cc2ncc(N3CCOCC3)nc12 (single isomer, unassigned) [Compound 246a]
b = O=C(c1cc(C2CCCN2c2cc(F)cc(F)c2)c2nc(N3CCOCC3)cnc2c1)N1CCS(=O)(=O)CC1 (single isomer, unassigned) [Compound 43]
c = CN(C)C(=O)c1cc(N2CCC2c2ccc(F)cc2)c2nc(N3CCOCC3)cnc2c1 (centres unmarked) [Compound 397]
[in] Sort these compounds on pKd so the largest reading comes first. Submit the labels in the order that the ranking request calls for.
[out] a, c, b
(a: 8.40, c: 7.44, b: 6.50)

a = CC(Nc1cc(F)cc(F)c1)c1cc(CN2C[C@@H](C)O[C@@H](C)C2)cc2ncc(N3CCOCC3)nc12 (single isomer, unassigned) [Compound 206]
b = CC(Nc1cccc(Br)c1)c1cc(C(=O)N2CCOCC2)cc2ncc(N3CCOCC3)nc12 (centres unmarked) [Compound 124]
[in] Which item exceeds the other in pKd, a or b ? Indicate which entry you chose by stating its label.
[out] b

a = CC(Nc1cccc(F)c1)c1cc(C(=O)NCC(=O)O)cc2ncc(N3CCOCC3)nc12 (single isomer, unassigned) [Compound 393a]
b = CC(c1cc(C(=O)N(C)C)cc2ncc(N3CCOCC3)nc12)N(C)c1cccc(Cl)c1 (single isomer, unassigned) [Compound 140]
c = O=C(NCCCO)c1cc(C2CCCN2c2cc(F)cc(F)c2)c2nc(N3CCOCC3)cnc2c1 (centres unmarked) [Compound 66]
d = CC(Nc1cc(F)cc(F)c1)c1cc(CNCC(F)F)cc2ncc(N3CCOCC3)nc12 (centres unmarked) [Compound 164]
[in] Arrange these compounds by their pKd, starting with the largest number. Please, when replying, give the labels in the order that was requested.
[out] c, d, a, b
(c: 8.70, d: 8.40, a: 7.96, b: 5.29)

====

Parameter: melting point (°C)

Before answering, review these 3 worked examples.
Compound	melting point / °C
CC(Nc1ccc(F)c(F)c1)c1cc(C(=O)NCCO)cc2ncc(N3CCOCC3)nc12 (single isomer, unassigned) [Compound 279a]	80
CC(Nc1cccc(F)c1)c1cc(C(=O)N2CCC[C@H](O)C2)cc2ncc(N3CCOCC3)nc12 (single isomer, unassigned) [Compound 320b]	136
CC(Nc1ccc(F)c(F)c1)c1cc(C(=O)NCC2CCCN2)cc2ncc(N3CCOCC3)nc12 (single isomer, unassigned) [Compound 329b]	124

P = CNCCNC(=O)c1cc(C(C)Oc2cc(F)cc(F)c2)c2nc(N3CCOCC3)cnc2c1 (single isomer, unassigned)
Q = CC(Oc1cc(F)cc(F)c1)c1cc(C(=O)NCCO)cc2ncc(N3CCOCC3)nc12 (stereo not drawn) [Compound 198]
R = CC(Oc1cc(F)cc(F)c1)c1cc(C(=O)NCCO)cc2ncc(N3CCOCC3)nc12 (single isomer, unassigned) [Compound 200]
[in] Order field: melting point | Direction: descending (largest first) Please respond with the labels ordered as the question requires.
[out] Q, R, P

a = Fc1cc(F)cc(N2CCCC2c2cncc3ncc(N4CCOCC4)nc23)c1 (single isomer, unassigned) [Compound 25]
b = CC(Nc1cc(F)cc(F)c1)c1cc(CN2CCOCC23COC3)cc2ncc(N3CCOCC3)nc12 (single isomer, unassigned)
[in] Identify the entry with the smaller melting point: a or b . Response format: the label of the selected entry.
[out] a
(a: 98 °C, b: 229 °C)

A = CN(CCO)Cc1cc(C2CCCN2c2cc(F)cc(F)c2)c2nc(N3CCOCC3)cnc2c1 (stereo not drawn)
B = O=C(NCCO)c1cc(NCc2cccc(F)c2)c2nc(N3CCOCC3)cnc2c1
[in] Which value of melting point is greater, the one for A or the one for B ? Write down the label attached to your selection.
[out] B
(B: 218 °C, A: 80 °C)

I = CC(Nc1ccc(F)c(F)c1)c1cc(C(=O)NCCN(C)C)cc2ncc(N3CCOCC3)nc12 (stereo not drawn) [Compound 281]
II = CC(Nc1cc(F)cc(F)c1)c1cc(C(=O)N2CCN(CC(F)(F)F)CC2)cc2ncc(N3CCOCC3)nc12 (stereo not drawn) [Compound 171]
III = COC(=O)c1cc(C(C)Nc2cc(F)c(F)c(F)c2)c2nc(N3CCOCC3)cnc2c1 (stereo not drawn)
[in] Endpoint returns the given compounds ordered by ascending melting point. Reply: labels, ordered per the request.
[out] I, II, III

====

# Target: UniProtKB O00329
# Sequence (O00329 1-1044): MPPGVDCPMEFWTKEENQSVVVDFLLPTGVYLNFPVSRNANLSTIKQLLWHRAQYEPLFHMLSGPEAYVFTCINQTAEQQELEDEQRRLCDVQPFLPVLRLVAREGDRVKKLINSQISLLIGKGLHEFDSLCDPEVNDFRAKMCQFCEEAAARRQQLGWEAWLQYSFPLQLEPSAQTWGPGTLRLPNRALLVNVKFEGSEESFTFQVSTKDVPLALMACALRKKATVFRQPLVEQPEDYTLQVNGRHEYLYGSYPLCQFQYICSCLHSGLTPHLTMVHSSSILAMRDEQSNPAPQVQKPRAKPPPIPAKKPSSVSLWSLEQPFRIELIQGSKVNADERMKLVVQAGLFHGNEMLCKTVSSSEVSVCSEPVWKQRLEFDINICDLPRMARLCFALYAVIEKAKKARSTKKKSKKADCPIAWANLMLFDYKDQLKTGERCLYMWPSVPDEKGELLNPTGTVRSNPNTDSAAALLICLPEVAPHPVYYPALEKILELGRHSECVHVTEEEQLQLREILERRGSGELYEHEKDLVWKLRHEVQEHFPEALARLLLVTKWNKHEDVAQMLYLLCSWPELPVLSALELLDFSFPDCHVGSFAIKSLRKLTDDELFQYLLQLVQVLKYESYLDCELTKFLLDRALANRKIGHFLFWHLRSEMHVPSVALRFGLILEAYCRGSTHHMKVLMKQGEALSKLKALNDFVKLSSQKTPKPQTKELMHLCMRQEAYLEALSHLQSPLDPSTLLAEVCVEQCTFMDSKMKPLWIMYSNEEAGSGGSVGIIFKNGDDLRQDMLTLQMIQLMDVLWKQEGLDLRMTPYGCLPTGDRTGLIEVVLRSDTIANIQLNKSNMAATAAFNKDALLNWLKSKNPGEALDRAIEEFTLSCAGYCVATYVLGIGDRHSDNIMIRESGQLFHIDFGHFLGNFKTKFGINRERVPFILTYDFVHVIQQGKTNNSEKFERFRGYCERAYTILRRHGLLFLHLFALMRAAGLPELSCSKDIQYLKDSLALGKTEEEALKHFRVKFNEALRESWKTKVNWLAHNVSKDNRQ
pKd: −log10 of the molar value.
Parameter: pKd

Example entries begin here.
Compound	pKd
CC(Nc1ccc(F)c(F)c1)c1cc(C(=O)N2CCN3CCC[C@H]3C2)cc2ncc(N3CCOCC3)nc12 (single isomer, unassigned) [Compound 287b]	5.53
CC(Nc1cc(Cl)cc(Cl)c1)c1cc(C(=O)N2CCOCC2)cc2ncc(N3CCOCC3)nc12 (centres unmarked)	6.58
CC(Oc1ccc(Cl)c(F)c1)c1cc(C(=O)N(C)CCN(C)C)cc2ncc(N3CCOCC3)nc12 (single isomer, unassigned) [Compound 313a]	6.07
CC(Nc1cc(F)cc(F)c1)c1cc(C(=O)NC[C@@H](C)O)cc2ncc(N3CCOCC3)nc12 (single isomer, unassigned) [Compound 201]	6.15

I = CC(c1cc(C(=O)N2CCOCC2)cc2ncc(N3CCOCC3)nc12)N(CCO)c1cc(F)cc(F)c1 (centres unmarked)
II = CC(Nc1cccc(F)c1)c1cc(C(=O)N2CCC[C@H](O)C2)cc2ncc(N3CCOCC3)nc12 (single isomer, unassigned) [Compound 320b]
III = CC(Oc1cccc(F)c1)c1cc(C(=O)N2CCC[C@H]2CO)cc2ncc(N3CCOCC3)nc12 (single isomer, unassigned)
IV = CC(Nc1ccc(F)c(F)c1)c1cc(C(=O)NCC(C)(C)O)cc2ncc(N3CCOCC3)nc12 (single isomer, unassigned) [Compound 348b]
V = OC1CN(Cc2cc(C3CCCN3c3cc(F)cc(F)c3)c3nc(N4CCOCC4)cnc3c2)C1 (centres unmarked)
[in] Please list these in order of increasing pKd. Thank you! Quick reminder: the answer is the labels in the order asked.
[out] IV, III, II, I, V
(IV: 4.59, III: 5.02, II: 5.29, I: 5.97, V: 7.72)

A = CN[C@@H]1CCN(C(=O)c2cc(C(C)Nc3ccc(F)c(F)c3)c3nc(N4CCOCC4)cnc3c2)C1 (single isomer, unassigned) [Compound 371b]
B = CC(Oc1cc(F)c(F)c(F)c1)c1cc(C(=O)N(C)C2CCNC2)cc2ncc(N3CCOCC3)nc12 (single isomer, unassigned) [Compound 404b]
[in] Field: lower pKd | Options: A / B Label of pick, please.
[out] A
